The origin of these recorded values is the supplement of paper PMC7877785.

Test: self-splicing fitness, log relative to wild type (ln ratio); higher = more splicing; Tetrahymena group I intron in knt gene, E. coli kanamycin selection, DiMSum; sequences stand for … in CUCUCU…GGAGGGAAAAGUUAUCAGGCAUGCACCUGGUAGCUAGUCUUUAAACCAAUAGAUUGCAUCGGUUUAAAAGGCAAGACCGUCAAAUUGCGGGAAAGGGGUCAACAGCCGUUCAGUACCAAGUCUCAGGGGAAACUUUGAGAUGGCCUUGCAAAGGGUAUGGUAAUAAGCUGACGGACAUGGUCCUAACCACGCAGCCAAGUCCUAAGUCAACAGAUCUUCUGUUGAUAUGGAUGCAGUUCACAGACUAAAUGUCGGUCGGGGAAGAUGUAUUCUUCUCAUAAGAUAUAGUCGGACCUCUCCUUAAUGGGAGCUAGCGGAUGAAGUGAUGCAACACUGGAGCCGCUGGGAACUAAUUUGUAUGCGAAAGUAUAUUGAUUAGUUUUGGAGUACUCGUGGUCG;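 also: selection with 25 µg/mL kanamycin versus none on LB agar overnight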
Settings: 37 °C
Okay, here is how we bin by self-splicing fitness (ln): bottom range (below -2), center range (-2 to below -0.9), top range (-0.9 or more)

Answered cases to consult:
SEQ STRING: ACUAAGCAAUAUUACGUGCC
GROUP LABEL: top range
--
SEQ STRING: GGAGAGCAAUAUUACGUACA
GROUP LABEL: center range
--
SEQ STRING: UGAAAGCAAUAUUACGAAGU
GROUP LABEL: bottom range
--
SEQ STRING: CCUCAGCAAUAUUACGCGAU
GROUP LABEL: bottom range
--
SEQ STRING: ACACAGCAAUAUUACGUACA
GROUP LABEL: center range

# classify by self-splicing fitness (ln) band: AACUAGCAAUAUUACGUGCA
top range

# classify by self-splicing fitness (ln) band: GCUCAGCAAUAUUACGCCCG
top range

# classify by self-splicing fitness (ln) band: GCUGAGCAAUAUUACGAACC
top range

###

Assay: self-splicing fitness, log relative to wild type (ln ratio); higher = more splicing; Tetrahymena group I intron in knt gene, E. coli kanamycin selection, DiMSum; sequences stand for … in CUCUCU…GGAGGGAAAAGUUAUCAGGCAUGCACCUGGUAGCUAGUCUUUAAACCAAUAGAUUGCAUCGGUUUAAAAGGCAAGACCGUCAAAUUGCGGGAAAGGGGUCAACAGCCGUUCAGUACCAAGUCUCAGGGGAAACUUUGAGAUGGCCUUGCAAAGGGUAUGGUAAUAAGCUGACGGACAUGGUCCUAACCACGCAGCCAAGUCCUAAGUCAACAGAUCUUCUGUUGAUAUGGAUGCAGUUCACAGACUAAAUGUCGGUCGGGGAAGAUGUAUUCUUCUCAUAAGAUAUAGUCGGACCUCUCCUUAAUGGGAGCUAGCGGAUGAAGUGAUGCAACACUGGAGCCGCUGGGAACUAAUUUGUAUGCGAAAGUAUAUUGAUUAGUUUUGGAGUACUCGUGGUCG
Details: 30 °C
# maps each entry to its self-splicing fitness (ln)
Form: value (number only, do not type unit).

SEQ STRING: GGCAAGCAAUAUUACGGCUA
self-splicing fitness (ln): -0.251
--
SEQ STRING: UAUAAGCAAUAUUACGCAAC
self-splicing fitness (ln): -3.03
--
SEQ STRING: AUGAAGCAAUAUUACGUCUU
self-splicing fitness (ln): -2.04
--
SEQ STRING: UAUAAGCAAUAUUACGUCCG
self-splicing fitness (ln): -0.775

Give recorded self-splicing fitness (ln). AAAGAGCAAUAUUACGGGAG
-3.34

Give recorded self-splicing fitness (ln). CAGAAGCAAUAUUACGCGUA
-2.63

Give recorded self-splicing fitness (ln). GCACAGCAAUAUUACGAACU
-0.419
